Attribution: ChEMBL document CHEMBL1157539

tested on: HepG2; test: GSK_TCMDC: Percent inhibition of human HepG2 cell line. Test compounds present at 10uM.; type: functional
attributeMeasured: Inhibition (%)
# output: bare number, implied unit %

Worked cases, Inhibition given:
moleculesmiles=Cl.c1ccc2c(Nc3ccc(Oc4ccc(Nc5c6ccccc6nc6ccccc56)cc4)cc3)c3ccccc3nc2c1 attributemeasured=Inhibition resultvalue=21
moleculesmiles=Oc1cc(Nc2ccnc3cc(I)ccc23)ccc1F attributemeasured=Inhibition resultvalue=0
moleculesmiles=CCOC(=O)C1CCN(CCCNC(=O)/C(=C/C=C/c2cc3cc(Cl)c(Cl)cc3[nH]2)OC)CC1 attributemeasured=Inhibition resultvalue=23
moleculesmiles=COc1ccc(CCNCCCCCCNCCCc2ccc(Cl)cc2)cc1OC.Cl attributemeasured=Inhibition resultvalue=36
moleculesmiles=CN(C)c1ccc(-c2ccc(C(=O)NC3CCN(Cc4ccccc4)CC3)s2)cc1.O=C(O)C(F)(F)F attributemeasured=Inhibition resultvalue=20
moleculesmiles=O=C(Nc1ccc(Cl)c(C(F)(F)F)c1)Nc1ccc(Cl)c(C(F)(F)F)c1 attributemeasured=Inhibition resultvalue=1
moleculesmiles=COc1cccc(CCc2ccc(O)c3c2C[C@H]2C[C@H]4[C@H](N(C)C)C(O)=C(C(N)=O)C(=O)[C@@]4(O)C(O)=C2C3=O)c1.Cl attributemeasured=Inhibition resultvalue=43

Consider now this further molecule.
Tell me Inhibition reported for "c1cc2[nH]c(CCCc3nc4cc(C5=N[C@H]6CCCC[C@H]6N5)ccc4[nH]3)nc2cc1C1=N[C@@H]2CCCC[C@@H]2N1"
10

---

system: Plasmodium falciparum; test: GSK_TCMDC: Inhibition of Plasmodium falciparum 3D7 in whole red blood cells, using parasite LDH activity as an index of growth. Test compounds present at 2uM; assay type: functional
Each item that follows carries a reported Inhibition.
Express your answer in %, writing the number without its unit.

Example entries begin here.
moleculesmiles=O=C(Nc1cccc(CN2CCCN(Cc3ccc(O)cc3)CC2)c1)c1ccc(-c2ccccc2)cc1.O=C(O)C(F)(F)F attributemeasured=Inhibition resultvalue=100
moleculesmiles=O=C(Nc1cccc(CN2CCCN(Cc3ccc4c(c3)OCO4)CC2)c1)c1ccc(-c2ccccc2)cc1.O=C(O)C(F)(F)F attributemeasured=Inhibition resultvalue=90

For the molecule "Cc1cccc2nc(-c3cccc(-c4cccc(CN5CCN(c6ccncc6)CC5)c4)c3)[nH]c12.O=C(O)C(F)(F)F" , give its measured Inhibition value.
100

Please report Inhibition for the following molecule: "Clc1ccc(-c2ccc(CNCCCN3CCCC3)cc2)cc1"
91

---

system: HepG2; experiment: GSK_TCMDC: Percent inhibition of human HepG2 cell line. Test compounds present at 10uM.; type: functional
# note: exactly 3% is not below, so it is NO; use YES for Inhibition strictly under it

For orientation, consider the following solved cases.
moleculesmiles=FC(F)(F)c1cccc(Nc2nc(-n3ccnc3)nc(-n3ccnc3)n2)c1 assignedcategory=NO
moleculesmiles=Clc1cccc(C=NNc2nc(=Nc3ccccc3)[nH]c(=Nc3ccccc3)[nH]2)c1 assignedcategory=YES
moleculesmiles=O=S(=O)(Nc1ccc(CCN2CCC(N3CCCCC3)CC2)cc1)c1ccc(Cl)cc1 assignedcategory=NO
moleculesmiles=CC(C)CCN1CCC(Oc2ccc(NC(=O)c3ccc(F)cc3)cc2Cl)CC1.O=C(O)C(F)(F)F assignedcategory=NO

In the following, a different molecule is considered.
Input "O=C(O)C(F)(F)F.c1ccc(CNCc2ccc(-c3cccc(-c4nc5ccccc5[nH]4)c3)cc2)cc1" ; condition: Inhibition strictly below 3%. Does it hold?
NO

---

test system: HepG2; test: GSK_TCMDC: Percent inhibition of human HepG2 cell line. Test compounds present at 10uM.; format: functional
Inhibition overview
Respond with the bare value in %.

Example results:
molecule=O=c1cc(NCCCCNCc2cccc(C(F)(F)F)c2)[nH]c2ccccc12 attributemeasured=Inhibition resultvalue=13
molecule=CC(=O)c1cccc(NC(=O)NC2CCN(CCCCCNC(=O)/C=C/c3ccc(Cl)c(Cl)c3)CC2)c1 attributemeasured=Inhibition resultvalue=7
molecule="CC(CNC1CCN(CCn2c(=O)ccc3ccc(F)cc32)CC1)c1ccccc1 (configuration not stated)" attributemeasured=Inhibition resultvalue=0
molecule=CCC(=O)Nc1ccc(Nc2nc(C)cc(N3CCCC3)n2)cc1 attributemeasured=Inhibition resultvalue=34
molecule=O=c1cc(NCCCNCc2cc(Br)ccc2F)[nH]c2ccccc12 attributemeasured=Inhibition resultvalue=0

Answer with the recorded Inhibition for the molecule listed here: "O=C1c2ccc([N+](=O)[O-])cc2C(=O)N1c1ccc2[nH]ncc2c1"
11

Identify Inhibition associated with the molecule "Fc1cccc(Nc2nc(NCc3ccc(OCc4ccccc4)cc3)nc(Nc3cccc(F)c3)n2)c1"
5

For the molecule "Cl.N=C(N)NN=Cc1ccc2c(c1)Cc1ccccc1-2" , give its reported Inhibition.
72

---

tested on: Plasmodium falciparum; experiment: GSK_TCMDC: Inhibition of Plasmodium falciparum Dd2 in whole red blood cells, using parasite LDH activity as an index of growth. Test compounds present at 2uM; assay type: functional
Reported values of Inhibition for individual entries
Give your result in % as a bare value.

State its Inhibition: "COc1ccc(CNC2CCN(C)CC2)cc1-c1ccc(S(=O)(=O)NC2CCC2)c(C)c1.O=C(O)C(F)(F)F"
96

Tell me Inhibition reported for NC1=NC(c2ccccc2)(c2ccccn2)C(=O)N1CCCc1ccccc1.O=C(O)C(F)(F)F (centres undefined)
64

Name the recorded Inhibition of the compound listed here: "OCCn1c(CNCCCNc2nc3ccccc3[nH]2)cc2c(Cl)cc(Cl)cc21"
0

Indicate its recorded Inhibition; the compound in question is "N=C(N)NN=CC(=O)Nc1ccc(Br)cc1.O=S(=O)(O)O"
1

Please report the measured Inhibition for "CN(C)CCCNCc1ccc(-c2ccc(CNCCOc3ccccc3)cc2)cc1.O=C(O)C(F)(F)F"
53

Assign Inhibition to the following record: "CCN(CC)CCN(Cc1ccc(-c2ccc(C(F)(F)F)cc2)cc1)C(=O)Cn1c(CCc2ccc(F)c(F)c2F)nc(=O)c2ccc(F)cc21.O=C(O)C(O)C(O)C(=O)O"
46

State its Inhibition: Cc1ccc(C2(C)CN(CCCOc3cccc(-c4ccc(C(=O)NC(C)C)cc4)c3)CCO2)cc1 (centres undefined)
89

Give reported Inhibition value for "Cc1cccc(C)c1CNc1ccnc2cc(C#N)ccc12.Cl"
99

Specify reported Inhibition for the compound shown: "CCn1c(CN2CCN(Cc3ccccc3)CC2)nc2cc(NC(=O)c3cccs3)ccc21"
95

---

test system: Plasmodium falciparum; assay: GSK_TCMDC: Inhibition of Plasmodium falciparum Dd2 in whole red blood cells, using parasite LDH activity as an index of growth. Test compounds present at 2uM; assay type: functional
The entries below are paired with their reported Inhibition.
Write down the numeric answer in % and omit the unit.

molecule=CON(C)C(=O)[C@@H](CCCCNC(=O)OCc1ccccc1)NC(=O)OC(C)(C)C resultvalue=0
molecule=Cn1cc(C2CCN(CCCCNC(=O)c3ccc(-c4ccc(C(F)(F)F)cc4)c(CO)c3)CC2)c2ccccc21 resultvalue=16
molecule=O=C(Nc1ccc(-c2cccc(-c3nc4cc(F)ccc4[nH]3)c2)cc1)c1ccncc1 resultvalue=18
molecule=O=C(Nc1cccc(OC2CCN(Cc3ccsc3)CC2)c1)c1ccc(C(F)(F)F)cc1.O=C(O)C(F)(F)F resultvalue=5
molecule="O=C(Nc1ccc(Cl)cc1Cl)NC1CCN(CCCCCNC(=O)C2CC2c2ccc(Cl)c(Cl)c2)CC1 (centres undefined)" resultvalue=30

Answer with reported Inhibition of "Cc1cccc2nc(-c3cccc(-c4ccc(NC(=O)Cc5ccc[n+]([O-])c5)cc4)c3)[nH]c12"
87

Identify measured Inhibition corresponding to "Br.CC[C@H]1CN2CCc3cc(OC)c(OC)cc3[C@@H]2C[C@@H]1CC1=NCCc2c1[nH]c1ccc(OCc3ccccc3)cc21"
89

Please look at this molecule and report its Inhibition: "Cc1cc(O)c(-c2ccc(S(=O)(=O)c3ccc(Cl)cc3)cc2)c(C)n1"
80

Write down Inhibition measured for item CCOc1ccc(C(C)NC(=O)Nc2ccccc2)cc1OCC (centres undefined)
95

---

system: HepG2; assay: GSK_TCMDC: Percent inhibition of human HepG2 cell line. Test compounds present at 10uM.; type: functional
Threshold 20%: Inhibition strictly smaller gives t, otherwise f.

Use these answered entries as a reference point.
compound=CN1C(=CC(=O)NC(=O)c2ccccc2)C(C)(C)c2ccccc21 assignedcategory=t
compound="CC[C@H]1CN2CCc3cc(OC)c(OC)cc3[C@@H]2C[C@@H]1C[C@H]1NCCc2cc(OC)c(OC)cc21 [EMETINE]" assignedcategory=f
compound=Oc1c(Br)cc2oc3c(c2c1CNCc1ccccc1)CCCC3 assignedcategory=t
compound=COc1ccc(Cl)cc1N1CCN(CCCNC(=O)c2ccc(-c3nc4cc(Cl)c(F)cc4[nH]3)c(F)c2)CC1 assignedcategory=f
compound=CC(C)(C)c1cc2cc(Nc3ccnc4cc(-c5nccs5)ccc34)ccc2[nH]1.Cl assignedcategory=t
compound=N=c1c(C(=O)NCc2ccccc2)cc2c(=O)n3ccccc3nc2n1CCc1ccccc1 assignedcategory=t
compound="COc1ccc2nccc(NC(=O)OC3CCC(NCc4ccc5c(n4)NC(=O)CS5)CC3)c2c1 (stereo not given)" assignedcategory=t
compound=CN(C)CCCN1CCN(C(=O)c2cccc(-c3noc(C(F)(F)F)n3)c2)CC1 assignedcategory=t

Determine whether this compound shows Inhibition lower than 20% (ties excluded): "O=C(Nc1cccc(Cl)c1N1CCOCC1)C(Cl)(Cl)Cl"
t

Please let me know if N#Cc1cccc(Nc2nccc(NCC(O)c3ccc(C(F)(F)F)cc3)n2)c1 (stereo not given) shows Inhibition below 20%.
f

A record lists "COc1ccc2nccc([C@@H](O)CN3CCC(NCc4cc5c(Cl)cc(Cl)cc5[nH]4)CC3)c2c1.O=C(O)C(=O)O" . Is its Inhibition below 20%?
f

Lab note: confirm whether the reported Inhibition for this compound is below 20%, equality not counting. compound: COc1ccc2nccc([C@@H](O)CN3CCC(NCC(O)Cc4ccccc4)CC3)c2c1.O=C(O)C(=O)O (stereo not given in full)
t
